System: HCC 2998
Test Details: NCI tumour cell line growth inhibition, 48 h
Calls of active or inactive are those of the source. Cut-off read from the data, not from the text of the source: active = GI50 up to about 1.1 µM and inactive = higher.
Can you answer with just one of these options? active, inactive

A selection of reference data follows.
CCOC(=O)Cc1nnc2n(-c3ccccc3)c(=O)c3ccccc3n12    inactive
COc1ccccc1Nc1nc(NNC(=O)Cc2ccccc2)nc(NNC(=O)c2ccncc2)n1    inactive
O=C(N/N=C\c1ccc2ccccc2c1)Nc1ccc([N+](=O)[O-])cc1    inactive
CC1=NN(C(=O)c2ccc(Cl)cc2)C(=O)/C1=C/c1ccc(O)cc1    inactive
N#Cc1c(-c2ccccc2)[nH]c2ccc(Cl)cc2c1=O    inactive
O=C(Nc1nncs1)NS(=O)(=O)n1cnc2ccccc21    inactive

I would be grateful if you could indicate the recorded call for Cc1cc(O)c2c(c1O)C(=O)c1c(O)ccc(O)c1C2=O .
inactive

Please do the same for CCN(CC)CCC(=O)O[C@H]1CC[C@H](CC(C)[C@H]2CC(=O)C(C)C=C(C)[C@H](OC(=O)CCN(CC)CC)C(OC)C(=O)[C@@H](C)CC(C)/C=C/C=C/C=C(C)C(OC)CC3CC[C@H](C)[C@](O)(O3)C(=O)C(=O)N3CCCCC3C(=O)O2)CC1OC (some centres undefined) as well.
active

Please do the same for CC(CC(=O)O)(CC(=O)O)C(=O)O as well.
inactive

Please do the same for CCc1cccc(C(C)C)c1NC(=O)C(=O)C1C(=O)Nc2ccccc2[S+]1[O-] (centres undefined) as well.
inactive

Please do the same for COc1cc(CNC(=O)CCCCCCCCCCSC#N)ccc1O as well.
inactive

---

Test system: SNB-75
Test Details: NCI tumour cell line growth inhibition, 48 h
Active and inactive are the calls of the source. Rule as the data show it: active = GI50 up to about 1.1 µM and inactive = higher.
# reported GI50; entries follow

Study these solved cases before continuing.
C[C@]12CCC(=O)CC1CCCC2=O (stereo partly drawn)    > 100 µM (inactive)
O=C(/C=C/c1ccc2c(c1)OCO2)c1ccc(O)cc1    25.1 µM (inactive)

Would you kindly look at the next entry?
Entry Cc1cc(S(=O)(=O)Nc2nc(N)nc(N(C)C)n2)c(SCC(=O)O)cc1Cl : reported GI50 = ?
> 10 µM (inactive)

---

Test system: OVCAR-8
Test Details: NCI tumour cell line growth inhibition, 48 h
The source made the active and inactive calls. Rule as the data show it: active = GI50 up to about 1.1 µM and inactive = higher.
# reported GI50; entries follow

CCCn1c(=O)c2ccccc2[n+]2c(-c3ccc([N+](=O)[O-])cc3)csc12    13.6 µM (inactive)
Cc1ccc(C)c(COCCOCn2c(=O)[nH]c(=O)c3cc(Br)ccc32)c1    94.2 µM (inactive)
C=C1C(=O)O[C@H]2C[C@@]3(COC(C)=O)C=COC=C(COC(=O)C(C)C)C3CC12 (stereo not given in full)    53.3 µM (inactive)
Nc1ccc(Oc2ccc(C3(c4ccc(Oc5ccc(N)cc5)cc4)C4CC5CC(C4)CC3C5)cc2)cc1    9.18 µM (inactive)

Entry Cc1cc(-c2no[n+]([O-])c2-c2cc(C)sc2S(C)(=O)=O)c(S(C)(=O)=O)s1 : reported GI50 = ?
> 100 µM (inactive)

---

System: DMS-273
Test Details: NCI tumour cell line growth inhibition, 48 h
The source made the active and inactive calls. No stated cut-off is given here; in the data, active = GI50 up to about 1.1 µM and inactive = higher.
Can you answer with just one of these options? active, inactive

A selection of reference data follows.
O=C1[C@@H]2C(c3ccccc3[N+](=O)[O-])=[N+](c3ccccc3)O[C@@H]2C(=O)N1c1ccc(Cc2ccc(N3C(=O)[C@H]4C(c5ccccc5[N+](=O)[O-])=[N+](c5ccccc5)O[C@H]4C3=O)cc2)cc1    inactive
CCOC(=O)C1=C(NC)OCC1=O    inactive
CCN(CC)CCCC(C)Nc1c2ccc(Cl)cc2nc2ccc(OC)cc12 (stereo not drawn)    active
FC(F)(F)c1nc(-c2ccccc2)oc1Sc1oc(-c2ccccc2)nc1C(F)(F)F    inactive

Now consider the entry below.
I would be grateful if you could indicate the recorded call for CCN(CC)CCC(=O)O[C@H]1CC[C@H](CC(C)[C@H]2CC(=O)C(C)C=C(C)[C@H](OC(=O)CCN(CC)CC)C(OC)C(=O)[C@@H](C)CC(C)/C=C/C=C/C=C(C)C(OC)CC3CC[C@H](C)[C@](O)(O3)C(=O)C(=O)N3CCCCC3C(=O)O2)CC1OC (stereo partly drawn) .
active
